- target: MDM2 (Homo sapiens)
- Sequence (Q00987 whole entry): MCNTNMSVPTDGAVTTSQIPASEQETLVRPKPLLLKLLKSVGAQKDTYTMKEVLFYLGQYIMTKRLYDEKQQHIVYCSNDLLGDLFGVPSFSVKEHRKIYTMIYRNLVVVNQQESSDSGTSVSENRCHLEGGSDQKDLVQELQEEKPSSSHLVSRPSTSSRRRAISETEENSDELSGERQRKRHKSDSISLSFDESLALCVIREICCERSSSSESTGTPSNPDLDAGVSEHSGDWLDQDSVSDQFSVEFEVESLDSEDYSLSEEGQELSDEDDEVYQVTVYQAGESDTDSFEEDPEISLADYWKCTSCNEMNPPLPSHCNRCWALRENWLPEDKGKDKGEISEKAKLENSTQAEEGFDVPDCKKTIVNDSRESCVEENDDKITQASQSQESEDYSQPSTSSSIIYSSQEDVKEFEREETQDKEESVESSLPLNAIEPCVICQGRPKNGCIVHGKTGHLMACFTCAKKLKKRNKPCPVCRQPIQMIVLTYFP
- protocol: MDM2 binding screen of Libraries 3 and 4: displacement of fluorescent probe F-M8 at 750 nM macrocycle
- assay-setup: Panel b, Library 3: 63 scaffolds combinatorially acylated with 15 carboxylic acids at 30 picomole scale; displacement of fluorescent peptide probe; macrocycle 750 nM
Would you mind telling me the reported fraction of fluorescent probe displaced of each entry?
Lab note: write the figure by itself, no unit.

Q: I am curious: what fraction of fluorescent probe displaced value has been reported for O=C(NC[C@@H]1NC(=O)[C@@H]2CN(CCO2)C(=O)CCSSCCNC(=O)[C@H](Cc2ccc3ccccc3c2)NC1=O)c1ccc(Cl)cc1 [X-Cop-Dap-2-Nal + Acid 25] ?
Result: 0.041

Q: I am curious: what fraction of fluorescent probe displaced value has been reported for O=C(/C=C/c1ccc(OCc2ccccc2)cc1)NCCN1CC(=O)N[C@H](Cc2c[nH]c3ccccc23)C(=O)NCCSSCCC(=O)NCC2(CC2)C1=O [X-Amcp-N-Aeg-D-Trp + Acid 110] ?
Result: 0.015

Q: I am curious: what fraction of fluorescent probe displaced value has been reported for O=C(/C=C/c1ccc(OCc2ccccc2)cc1)NC[C@H]1NC(=O)C2(CC2)CNC(=O)CCSSCCNC(=O)[C@@H](Cc2c[nH]c3ccccc23)NC1=O [X-Amcp-D-Dap-D-Trp + Acid 110] ?
Result: -0.00533

Hey, just so you know, these numbers are from paper PMC9250534.
